- STUDY_TARGET: α1β1R41N GABAA receptors (Rattus norvegicus, UniProt P15431+P62813, R66N)
- Construct: expressed in transfected cells; host or cells: Xenopus laevis oocytes, mRNA injected
- Sequence (P62813 28-455): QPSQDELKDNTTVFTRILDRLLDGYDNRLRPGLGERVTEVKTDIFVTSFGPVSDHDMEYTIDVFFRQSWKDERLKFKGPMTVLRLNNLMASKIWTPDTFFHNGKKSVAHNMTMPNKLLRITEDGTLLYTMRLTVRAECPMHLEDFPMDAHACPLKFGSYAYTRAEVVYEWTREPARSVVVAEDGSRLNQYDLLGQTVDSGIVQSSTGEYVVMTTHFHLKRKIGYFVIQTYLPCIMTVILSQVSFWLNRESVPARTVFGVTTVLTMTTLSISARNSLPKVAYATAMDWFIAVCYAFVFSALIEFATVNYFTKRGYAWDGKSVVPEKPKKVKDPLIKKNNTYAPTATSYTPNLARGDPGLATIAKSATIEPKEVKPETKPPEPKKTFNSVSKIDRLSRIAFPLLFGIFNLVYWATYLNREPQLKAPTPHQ
- Sequence (P15431 26-474 R66N): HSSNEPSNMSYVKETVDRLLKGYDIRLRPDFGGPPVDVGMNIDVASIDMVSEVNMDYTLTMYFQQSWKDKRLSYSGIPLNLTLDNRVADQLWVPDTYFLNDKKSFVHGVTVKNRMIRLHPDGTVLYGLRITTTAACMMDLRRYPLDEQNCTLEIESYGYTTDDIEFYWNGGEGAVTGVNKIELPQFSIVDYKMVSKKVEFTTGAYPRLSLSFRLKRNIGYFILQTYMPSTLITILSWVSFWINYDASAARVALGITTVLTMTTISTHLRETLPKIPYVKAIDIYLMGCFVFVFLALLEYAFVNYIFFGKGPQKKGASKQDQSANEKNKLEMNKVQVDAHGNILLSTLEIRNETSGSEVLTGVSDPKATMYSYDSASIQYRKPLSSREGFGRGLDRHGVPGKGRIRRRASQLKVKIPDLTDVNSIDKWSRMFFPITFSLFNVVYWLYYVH
- PROCEDURE_TEXT: Two electrode voltage clamp in Xenopus laevis oocytes, mutant α1β1R41N
- Type: cell-based
- MEASUREMENT_CONTEXT: 100nM, read-out: % of control current at EC3-5
MEASURED_METRIC: current as % of control at 0.1 µM (%)
Kindly answer with a numeric value in %, unit omitted.

Reference set (5 entries):
- COMPOUND: "Nc1ccc(-n2nc3c4cc(Cl)ccc4[nH]cc-3c2=O)cc1 [Compound 3]"
  STUDY_TARGET: "α1β1R41N GABAA receptors (Rattus norvegicus, UniProt P15431+P62813, R66N)"
  U: "%"
  current as % of control at 0.1 µM: 70
- COMPOUND: "COc1ccc2[nH]cc3c(=O)n(-c4ccc(C)cc4)nc-3c2c1 [Compound 5]"
  STUDY_TARGET: "α1β1R41N GABAA receptors (Rattus norvegicus, UniProt P15431+P62813, R66N)"
  U: "%"
  current as % of control at 0.1 µM: 95
- COMPOUND: "COc1ccc(-n2nc3c4cc(OC)ccc4[nH]cc-3c2=O)cc1 [Compound 4]"
  STUDY_TARGET: "α1β1R41N GABAA receptors (Rattus norvegicus, UniProt P15431+P62813, R66N)"
  U: "%"
  current as % of control at 0.1 µM: 80
- COMPOUND: "Cc1ccc(-n2nc3c4cc(Cl)ccc4[nH]cc-3c2=O)cc1 [Compound 2]"
  STUDY_TARGET: "α1β1R41N GABAA receptors (Rattus norvegicus, UniProt P15431+P62813, R66N)"
  U: "%"
  current as % of control at 0.1 µM: 70
- COMPOUND: "COc1ccc2[nH]cc3c(=O)n(-c4ccc(N)cc4)nc-3c2c1 [Compound 6]"
  STUDY_TARGET: "α1β1R41N GABAA receptors (Rattus norvegicus, UniProt P15431+P62813, R66N)"
  U: "%"
  current as % of control at 0.1 µM: 75

Moving on to another compound below.
Query string: Using the record for COc1ccc(-n2nc3c4cc(Cl)ccc4[nH]cc-3c2=O)cc1 [Compound 1] , state its measured current as % of control at 0.1 µM.
Result string: 80
